# System: INS-1E rat beta cells, no cytokines, CellTiter-Glo ATP, 48 h
# METHOD NOTES: cytokine-free beta-cell viability effect – INS-1E rat cells, ATP luminescence, cherry pick, counter-screen for beta-cell apoptosis protection project, dose response (AID 463229)
MEASURED ENDPOINT: AC50

Consider the worked cases shown below.
COMPOUND	AC50
CCOC(=O)c1sc(NC(=O)Nc2cccc(Cl)c2)cc1C	7.53 µM
O=C1/C(=C/c2cccnc2)CCC/C1=C\c1cccnc1	6.89 µM

Hi, could you look up AC50 for each item in my list?
1. Cc1ccc2nc(C)c(CN3CCN(c4ccc([N+](=O)[O-])cc4Cl)CC3)n2c1
2. NNc1ncnc2scc(-c3ccc(Cl)cc3)c12
3. N=c1ccn(Cc2ccc(Cl)cc2Cl)cc1
4. NNc1nc(-c2ccccc2)cc(-c2ccccc2O)n1
5. O=C(Nc1nc(-c2ccccn2)cs1)c1ccc([N+](=O)[O-])o1

1. 2.92 µM
2. 14.5 µM
3. 7.81 µM
4. 17.7 µM
5. 6.03 µM

Hi, could you look up AC50 for each item in my list?
1. Oc1cccc2ccc(Nc3ccccn3)nc12
2. CCS(=O)(=O)c1ncc(Cl)c(C(=O)Nc2ccc(S(=O)(=O)N(C)c3ccccc3)cc2)n1
3. COC(=O)c1ccccc1NC1=C/C(=N\S(=O)(=O)c2cccs2)c2ccccc2C1=O
4. Cc1oc2c(c1C(=O)N1CCOCC1)C(=O)c1ccccc1C2=O
5. CC1(C)C(C=C(Cl)Cl)C1C(=O)Nc1ccc([N+](=O)[O-])cc1 (configuration not stated)
6. Cc1ccccc1C(=O)N1CCN(c2ccc(NC(=O)c3cccnc3)cc2)CC1

["2.27 µM", "6.63 µM", "8.33 µM", "8.12 µM", "7.7 µM", "11.7 µM"]

* * *

# System: INS-1E rat beta cells, no cytokines, CellTiter-Glo ATP, 48 h
# METHOD NOTES: cytokine-free beta-cell viability effect – INS-1E rat cells, ATP luminescence, cherry pick, counter-screen for beta-cell apoptosis protection project, dose response (AID 463229)
So I've got a bunch of compounds here, and I need their AC50 values.

Consider the worked cases shown below.
COMPOUND	TESTED TARGET	MEASURED ENDPOINT	OBSERVED VALUE
CC(C)(C)C1CCC2(CC1)C(C#N)=C(SCC(=O)NC1CCCCC1)NC(=O)C2C#N (centres undefined)	INS-1E rat beta cells, no cytokines, CellTiter-Glo ATP, 48 h	AC50	15.9 µM
Nc1c(C(=O)Nc2ccc(S(=O)(=O)N3CCCC3)cc2)sc2nc3ccc(OC(F)(F)F)cc3cc12	INS-1E rat beta cells, no cytokines, CellTiter-Glo ATP, 48 h	AC50	5.29 µM
Cc1ccc2[nH]c3c(N4CCc5ccccc5C4)ncnc3c2c1	INS-1E rat beta cells, no cytokines, CellTiter-Glo ATP, 48 h	AC50	2.58 µM

With those in mind, consider the next compound.
Find the measured AC50 of C#CCOCCOCCOCCNc1nc(N2CCN(C(=O)CCCCCCCCCCNC(=O)[C@H](CCCCN)n3cc(C)nn3)CC2)nc(N2CCN(C(=O)CCCCCCCCCCNC(=O)[C@@H]([C@H](C)CC)n3cc(CCCCCN)nn3)CC2)n1 and report it. 6.78 µM
